- protocol.details: Apparent half life in Sprague-Dawley rat at 2 mg/kg, iv by LC-MS analysis
- Format: ADME, organism-based
- recorded.conditions: in vivo, read-out: t1/2(app) (converted)
readout.kind: half-life

Cc1cc(/C=C/C#N)cc(C)c1Oc1nc(NC2CCN(Cc3ccc(S(N)(=O)=O)cc3)CC2)nc2ccsc12 ... 1.34 h

====

Recorded selectivity ratio by entry
- protocol.details: Selectivity index, ratio of CC50 for human MT4 cells to EC50 for reverse transcriptase E138K mutant in human MT4 cells infected HIV1 3B
- recorded.conditions: MT4 cells
readout.kind: selectivity ratio

Cc1cc(/C=C/C#N)cc(C)c1Oc1nc(NC2CCN(Cc3ccc(C#N)cc3)CC2)nc2ccsc12 ... 91
Cc1cc(C#N)cc(C)c1Oc1nc(NC2CCC(NCc3ccccc3)CC2)nc2ccsc12 (stereo not given) ... 3
Cc1cc(/C=C/C#N)cc(C)c1Oc1nc(NC2CCN(Cc3cccc(F)c3)CC2)nc2ccsc12 ... 150
Cc1cc(/C=C/C#N)cc(C)c1Oc1nc(NC2CCN(Cc3cccc(C#N)c3)CC2)nc2ccsc12 ... 101
Cc1cc(/C=C/C#N)cc(C)c1Oc1nc(NC2CCN(Cc3ccccn3)CC2)nc2ccsc12 ... 517
Cc1ccc(CN2CCC(Nc3nc(Oc4c(C)cc(/C=C/C#N)cc4C)c4sccc4n3)CC2)cc1 ... 90
Cc1cc(/C=C/C#N)cc(C)c1Oc1nc(NC2CCN(Cc3ccccc3Cl)CC2)nc2ccsc12 ... 31
Cc1cc(C#N)cc(C)c1Oc1nc(NC2CCC(NCc3ccc([N+](=O)[O-])cc3)CC2)nc2ccsc12 (stereo not given) ... 344
Cc1cc(C#N)cc(C)c1Oc1nc(NC2CCN(Cc3ccc(C(N)=O)cc3)CC2)nc2sccc12 ... 6
Cc1cc(C#N)cc(C)c1Oc1nc(NC2CCC(NCc3ccc(S(C)(=O)=O)cc3)CC2)nc2ccsc12 (stereo not given) ... 556
Cc1cc(/C=C/C#N)cc(C)c1Oc1nc(NC2CCN(Cc3cccc(Cl)c3)CC2)nc2ccsc12 ... 37
Cc1cc(/C=C/C#N)cc(C)c1Oc1nc(NC2CCN(Cc3ccc([N+](=O)[O-])cc3)CC2)nc2ccsc12 ... 86
Cc1cc(/C=C/C#N)cc(C)c1Oc1nc(NC2CCN(Cc3cccc(Br)c3)CC2)nc2ccsc12 ... 61
Cc1cc(C#N)cc(C)c1Oc1nc(NC2CCC(NCc3ccc(Br)cc3)CC2)nc2ccsc12 (stereo not given) ... 4
Cc1cc(/C=C/C#N)cc(C)c1Oc1nc(NC2CCN(Cc3ccncc3)CC2)nc2ccsc12 ... 560
Cc1cc(/C=C/C#N)cc(C)c1Oc1nc(NC2CCN(Cc3ccc(F)cc3)CC2)nc2ccsc12 ... 74
Cc1cc(/C=C/C#N)cc(C)c1Oc1nc(NC2CCN(Cc3ccccc3C#N)CC2)nc2ccsc12 ... 53
Cc1ccccc1CN1CCC(Nc2nc(Oc3c(C)cc(/C=C/C#N)cc3C)c3sccc3n2)CC1 ... 22
Cc1cc(/C=C/C#N)cc(C)c1Oc1nc(NC2CCN(Cc3ccccc3F)CC2)nc2ccsc12 ... 74
Cc1cc(C#N)cc(C)c1Oc1nc(NC2CCC(NCc3ccc(O)cc3)CC2)nc2ccsc12 (stereo not given) ... 5
Cc1cc(/C=C/C#N)cc(C)c1Oc1nc(NC2CCN(Cc3ccc(Br)cc3)CC2)nc2ccsc12 ... 44
Cc1cc(/C=C/C#N)cc(C)c1Oc1nc(NC2CCN(Cc3cccnc3)CC2)nc2ccsc12 ... 587
Cc1cc(/C=C/C#N)cc(C)c1Oc1nc(NC2CCN(Cc3ccccc3Br)CC2)nc2ccsc12 ... 39
Cc1cc(C#N)cc(C)c1Oc1nc(NC2CCN(Cc3ccc(S(N)(=O)=O)cc3)CC2C(=O)O)nc2ccsc12 (stereo not given) ... 8
Cc1cc(C#N)cc(C)c1Oc1nc(NC2CCN(Cc3ccc(S(N)(=O)=O)cc3)CC2)nc2sccc12 ... 3180
Cc1cc(/C=C/C#N)cc(C)c1Oc1nc(NC2CCN(Cc3cccc(C(N)=O)c3)CC2)nc2ccsc12 ... 551
CCOC(=O)C1CN(Cc2ccc(S(N)(=O)=O)cc2)CCC1Nc1nc(Oc2c(C)cc(C#N)cc2C)c2sccc2n1 (stereo not given) ... 7
Cc1cc(C#N)cc(C)c1Oc1nc(NC2CCN(Cc3ccc(S(N)(=O)=O)cc3)CC2F)nc2ccsc12 (stereo not given) ... 296
